Data provenance: PubChem BioAssay (NCI)

In this section, each of the compounds is paired with its reported TGI.
test system: SW-620 colon; test: NCI tumour cell line growth inhibition, 48 h
Where a SMILES comes first, the peptide text is derived from it. The star is where a group is joined. Boc = CC(C)(C)OC(=O)*

| compound | TGI |
| --- | --- |
| CC(=O)NS(=O)(=O)c1ccc(-n2nc(-c3ccccc3)cc2-c2cc(O)ccc2O)cc1 | > 100 µM |
| C=CC(Br)(CBr)CCC1OC1(C)C (stereo not given) | 26.8 µM |
| CNC(=O)CNC(=O)C(NC(=O)CNC(=O)C1CCCN1C(=O)C(C)NC(=O)C(NC(=O)OC(C)(C)C)C(C)C)C(C)C (stereo not given) (Boc-VAPGVG-NHMe; configuration not given here) | > 100 µM |
| Cc1ccc([N+](=O)[O-])cc1S(=O)(=O)Nc1ccc(C(=O)/C=C/c2ccccc2)cc1 | 59.4 µM |
| Cc1ccc(S(=O)(=O)NN=C2C(C)CC(C(C)(C)C)CC2C)cc1 (stereo not given) | 40.6 µM |
| O=C1NC(=S)NC1C(Cc1ccccc1)c1ccco1 (stereo not given) | > 100 µM |
| Cc1cc2c(=O)c3ccc(Cl)cc3[nH]c2c(C(=O)O)c1C | > 100 µM |
| CC(=O)Nc1ccc(S(=O)(=O)N/N=C/c2cc(I)cc([N+](=O)[O-])c2O)cc1 | > 100 µM |
| CCOC(=O)Cc1csc(Nc2nc(O)c(C3=c4ccccc4=NC3=O)s2)n1 | > 100 µM |
| CCCCN(CCCC)C(=O)C(=O)C(C(=O)C(=O)OC)c1nc2ccccc2o1 (stereo not given) | > 100 µM |
| CC(C)C1=CC23CCC4C(C)(C(=O)O)CCCC4(C)C2CC1C1C(=O)N(c2ccc(N4C(=O)C5C6CC7C8(C)CCCC(C)(C(=O)O)C8CCC7(C=C6C(C)C)C5C4=O)cc2)C(=O)C13 (stereo not given) | 21.6 µM |
| CC1NC(=O)c2c(-c3ccccc3)nn(-c3ccccc3)c2NC1=O (stereo not given) | > 100 µM |
| COc1ccc(/C=C/C(=O)c2ccc(B(O)O)cc2)cc1O | 22 µM |
| COc1cc2c3c(n(CCCNC(C)(C)CO)c(=O)c2cc1OC)-c1cc2c(cc1C3=O)OCO2 | 19 µM |
| O=c1n(Cc2ccccc2)c2ccccc2n1CC1CS1 (stereo not given) | > 100 µM |
| Cc1ccc(NCCO)cc1 | > 100 µM |
| COc1ccc2cc(NC(=O)Nn3cnnc3)ccc2c1 | > 100 µM |
| CCN1C2=C(SC(=S)C1=C1SC(C(=O)c3ccccc3)=C(C(=O)c3ccccc3)S1)SC(=Nc1ccccc1)C2=O | 8.38 µM |
| Nc1n[nH]c2ccc([C@H]3[C@@H]4C5CCC(C5)[C@@H]4c4c(ccc5[nH]ncc45)N3S(=O)(=O)C3CC3)cc12 (stereo not given in full) | > 33.7 µM |
| CCOC(=O)C(=O)N=Nc1c(O)[nH]c2ccccc12 | > 100 µM |
